Target: isolated HNE (human neutrophil elastase) (Homo sapiens)
Construct: immediately processed to its active form in the trans-Golgi before being targeted to azurophil granules
Test: Inhibition of isolated HNE, steady-state kinetics (MeOSuc-AAPV-AMC)
Conditions: read-out: IC50(60min), isolated HNE; irreversible inhibitors, incubated 1 h, logistic fit, mean ± SD
Parameter measured: pIC50
Convention used: pIC50 is expressed as -log10 of the molar concentration.

# get_value(readout='pIC50', item= Cl.NCCc1ccc(S(=O)(=O)F)cc1 [Pefabloc SC] )
3.89

----------
Biological target: HNE in U937 lysates (Homo sapiens)
Construct: the myeloid cell line U937, which can differentiate into neutrophils [25] and expresses HNE
Assay: Inhibition of HNE activity in U937 lysates
Details: U937 lysate 1000 cells/µL, incubated 1 h 37 °C, Morrison fit, mean ± SD
Parameter measured: Ki (µM)
All answers are understood in µM, so give the number only.

>>> numeric_readout("CCC[C@@H](NC(=O)N1C(=O)C(CC)(CC)[C@@H]1Oc1ccc(C(=O)N2CCN(C)CC2)cc1)c1ccc2c(c1)OCO2 [DMP 777]")
0.00034
>>> numeric_readout("COc1cc(C(C)C)c2c(c1)S(=O)(=O)N(COc1cc(=O)n3cccc(OCCN4CCCCC4)c3n1)C2=O [SSR 69071]")
0.00033

Now examine the next entry.
# get_value(readout='Ki', item= Cc1c(-c2ccnn2C)cc(C(=O)NCc2ccc(S(C)(=O)=O)cn2)c(=O)n1-c1cccc(C(F)(F)F)c1 [Alvelestat, alvelestat] )
0.011

----------
Molecular target: isolated HNE (human neutrophil elastase) (Homo sapiens)
Construct: immediately processed to its active form in the trans-Golgi before being targeted to azurophil granules
Assay: Inhibition of isolated HNE, steady-state kinetics (MeOSuc-AAPV-AMC)
Conditions: HNE 0.5 nM, incubated 1 h 37 °C, Morrison fit, mean ± SD; compound 5b in phosphate buffer pH 7.4
Parameter measured: Ki (µM)
All answers are understood in µM, so give the number only.

>>> numeric_readout("Cc1c(-c2ccnn2C)cc(C(=O)NCc2ccc(S(C)(=O)=O)cn2)c(=O)n1-c1cccc(C(F)(F)F)c1 [Alvelestat, alvelestat]")
0.009

Return Ki measured with isolated HNE (human neutrophil elastase) (Homo sapiens) given this compound: CCC[C@@H](NC(=O)N1C(=O)C(CC)(CC)[C@@H]1Oc1ccc(C(=O)N2CCN(C)CC2)cc1)c1ccc2c(c1)OCO2 [DMP 777]
0.00025

----------
Target: HNE in U937 cells (Homo sapiens)
Construct: the myeloid cell line U937, which can differentiate into neutrophils [25] and expresses HNE; host or cells: U937 (histiocytic lymphoma), undifferentiated
Sequence (P08246 30-247 limits assumed): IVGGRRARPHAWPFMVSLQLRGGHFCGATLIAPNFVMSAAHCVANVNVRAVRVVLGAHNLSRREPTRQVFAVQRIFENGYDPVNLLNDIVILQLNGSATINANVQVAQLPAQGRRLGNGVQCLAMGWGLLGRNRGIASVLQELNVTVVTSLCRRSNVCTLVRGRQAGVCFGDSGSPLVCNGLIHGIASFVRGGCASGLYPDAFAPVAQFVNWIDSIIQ
Test: Intracellular HNE inhibition in cultured U937 cells (residual activity in lysates)
Type: cell-based
Conditions: read-out: IC50, HNE in U937 cells at 6 h; 6 h incubation
pIC50: −log10 of the molar value.
Parameter measured: pIC50

Return pIC50 measured with HNE in U937 cells (Homo sapiens) given this molecule: "Cl.NCCc1ccc(S(=O)(=O)F)cc1"
~5.00

----------
Molecular target: HNE in U937 cells (Homo sapiens, UniProt P08246)
Construct: the myeloid cell line U937, which can differentiate into neutrophils [25] and expresses HNE; host or cells: U937 (histiocytic lymphoma), undifferentiated
Sequence (P08246 30-247 limits assumed): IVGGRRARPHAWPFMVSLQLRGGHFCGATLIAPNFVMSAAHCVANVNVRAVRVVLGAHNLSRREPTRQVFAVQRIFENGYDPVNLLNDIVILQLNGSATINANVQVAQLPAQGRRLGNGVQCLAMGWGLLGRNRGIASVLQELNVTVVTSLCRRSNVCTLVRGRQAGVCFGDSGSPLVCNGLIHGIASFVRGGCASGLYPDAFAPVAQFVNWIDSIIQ
Test: Intracellular HNE inhibition in cultured U937 cells (residual activity in lysates)
Assay type: cell-based
Conditions: 0 h incubation; read-out: IC50, HNE in U937 cells at 0 h
Parameter measured: IC50

# get_value(readout='IC50', item= "Cl.NCCc1ccc(S(=O)(=O)F)cc1" )
~100 µM

----------
Biological target: HNE in mature PMN (Homo sapiens, UniProt P08246)
Assay: Intracellular HNE inhibition in freshly isolated mature PMN
Conditions: read-out: IC50, HNE in PMN; 1 h incubation
pIC50: −log10 of the molar value.
Parameter measured: pIC50

# get_value(readout='pIC50', item= "Cl.NCCc1ccc(S(=O)(=O)F)cc1" )
~4.00
